These measurements were taken from the supplement of paper PMC11208160.

Assay: recombinant barcode read abundance after kanamycin selection (control-corrected) (log10(CPM+1)); higher = more efficient recombination; sequences stand for … in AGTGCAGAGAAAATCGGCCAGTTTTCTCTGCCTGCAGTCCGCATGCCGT…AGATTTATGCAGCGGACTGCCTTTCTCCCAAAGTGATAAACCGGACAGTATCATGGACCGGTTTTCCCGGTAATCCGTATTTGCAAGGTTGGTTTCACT; site = the 11-nt target;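 also: IS621 recombinase and bridge RNA in Escherichia coli cells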
Observable: recombinant barcode read abundance (log10)
Numbers only.

Observe how each entry below is paired with its result.
TTCCGCTCTTGGGTTCTAACCTGTTGCCT (site TTCCGCTCTAG)
1.26
CGATTTCCTTGGGTTCTAACCTGTTGCCT (site CGATTTCCTAG)
0.0837
AGAGTGACTTGGGTTCTAACCTGTTGCCT (site AGAGGGACTAG)
0.0448

Could I get recombinant barcode read abundance (log10) for every one of these entries?
1. GTAAAGTCTTGGGTTCTAACCTGTTGCCA (site CTAAAGTCTTG)
2. TAGCCTACTTGGGTTCTAACCTGTTGCGG (site TAGCCTACTGC)
3. ACAAGGCCTTGGGTTCTAACCTGTTGCCT (site CCAAGGCCTAG)
4. TAACGTTCTTGGGTTCTAACCTGTTGCCT (site TACCGTTCTAG)
5. CTTTAATCTTGGGTTCTAACCTGTTGCCT (site CTTAAATCTAG)
6. ACAGAGACTTGGGTTCTAACCTGTTGCTA (site ACAGAGACTTA)
7. ATGTGAACTTGGGTTCTAACCTGTTGCTG (site GCAGCCTCTAC)

1. 0.0579
2. 0.0519
3. 0.784
4. 0.0273
5. 0.349
6. 1.35
7. 0.0648
